Entries and their measured GI50 follow.
- System: Proto-oncogene tyrosine-protein kinase receptor Ret (Homo sapiens), P07949 [C634W]
- Sequence (P07949 whole entry C634W): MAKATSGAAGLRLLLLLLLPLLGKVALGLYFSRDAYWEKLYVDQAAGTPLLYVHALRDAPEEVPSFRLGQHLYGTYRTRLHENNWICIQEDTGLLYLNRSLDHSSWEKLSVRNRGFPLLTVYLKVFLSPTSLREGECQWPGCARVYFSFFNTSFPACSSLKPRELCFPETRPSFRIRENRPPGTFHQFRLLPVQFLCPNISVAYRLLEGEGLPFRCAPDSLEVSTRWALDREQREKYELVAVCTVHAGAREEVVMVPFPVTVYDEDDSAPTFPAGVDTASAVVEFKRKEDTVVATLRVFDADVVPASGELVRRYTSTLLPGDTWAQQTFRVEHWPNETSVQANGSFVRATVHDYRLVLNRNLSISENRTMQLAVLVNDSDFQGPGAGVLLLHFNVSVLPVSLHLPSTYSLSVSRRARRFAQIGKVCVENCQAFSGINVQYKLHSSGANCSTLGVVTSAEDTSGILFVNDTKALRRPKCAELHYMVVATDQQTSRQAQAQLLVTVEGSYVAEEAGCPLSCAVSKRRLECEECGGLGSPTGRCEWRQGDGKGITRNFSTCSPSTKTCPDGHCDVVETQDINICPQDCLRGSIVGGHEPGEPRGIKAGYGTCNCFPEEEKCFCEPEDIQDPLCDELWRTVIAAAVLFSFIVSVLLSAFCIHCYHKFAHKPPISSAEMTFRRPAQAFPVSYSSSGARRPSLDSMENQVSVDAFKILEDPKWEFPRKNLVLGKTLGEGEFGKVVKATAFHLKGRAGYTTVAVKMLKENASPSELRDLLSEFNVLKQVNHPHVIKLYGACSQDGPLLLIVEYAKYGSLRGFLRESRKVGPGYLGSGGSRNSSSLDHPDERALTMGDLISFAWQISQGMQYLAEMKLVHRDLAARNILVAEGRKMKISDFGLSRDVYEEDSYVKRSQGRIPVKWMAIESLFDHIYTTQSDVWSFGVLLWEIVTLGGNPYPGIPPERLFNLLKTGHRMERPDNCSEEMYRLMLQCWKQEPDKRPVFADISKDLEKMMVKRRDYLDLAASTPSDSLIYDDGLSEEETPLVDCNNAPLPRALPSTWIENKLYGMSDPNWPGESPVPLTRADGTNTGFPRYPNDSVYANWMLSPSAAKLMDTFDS
- condition_details: TT
- Description: Inhibition of RET C634W mutant in human TT cells assessed as cell growth inhibition after 10 days by MTT assay
assay_metric: GI50

INSERT INTO measurements (compound, measurement) VALUES
  ('CC(C)n1nc(C2=NOC(c3ccccc3)C2)c2c(N)ncnc21 (stereo unspecified)', '> 10 µM'),
  ('CC(C)n1nc(/C=N/O)c2c(N)ncnc21', '> 10 µM'),
  ('Nc1ncnc2c1c(-c1cc(C3CC3)on1)nn2Cc1ccccc1', '> 10 µM'),
  ('CC(C)n1nc(-c2cc(C(C)(C)C)on2)c2c(N)ncnc21', '> 10 µM'),
  ('CCCCCCCn1nc(-c2cc(C3CC3)on2)c2c(N)ncnc21', '> 10 µM'),
  ('CC(C)n1nc(-c2cc(-c3ccc(F)cc3)on2)c2c(N)ncnc21', '> 10 µM'),
  ('CC(C)n1nc(-c2cc(C3CCCC3)on2)c2c(N)ncnc21', '> 10 µM'),
  ('Nc1ncnc2[nH]nc(-c3cc(C4CC4)on3)c12', '> 10 µM'),
  ('CC(C)n1nc(-c2cc(C3CCCCC3)on2)c2c(N)ncnc21', '> 10 µM'),
  ('CC(C)n1nc(-c2cc(-c3ccccc3)on2)c2c(N)ncnc21', '> 10 µM'),
  ('CC(C)n1nc(-c2cc(Cc3ccccc3)on2)c2c(N)ncnc21', '> 10 µM');
